test system: cynomolgus CTGF; assay: SPR binding kinetics and affinity, cynomolgus CTGF; conditions: 25° C., 1:1 binding model
Sequence (as listed by the source): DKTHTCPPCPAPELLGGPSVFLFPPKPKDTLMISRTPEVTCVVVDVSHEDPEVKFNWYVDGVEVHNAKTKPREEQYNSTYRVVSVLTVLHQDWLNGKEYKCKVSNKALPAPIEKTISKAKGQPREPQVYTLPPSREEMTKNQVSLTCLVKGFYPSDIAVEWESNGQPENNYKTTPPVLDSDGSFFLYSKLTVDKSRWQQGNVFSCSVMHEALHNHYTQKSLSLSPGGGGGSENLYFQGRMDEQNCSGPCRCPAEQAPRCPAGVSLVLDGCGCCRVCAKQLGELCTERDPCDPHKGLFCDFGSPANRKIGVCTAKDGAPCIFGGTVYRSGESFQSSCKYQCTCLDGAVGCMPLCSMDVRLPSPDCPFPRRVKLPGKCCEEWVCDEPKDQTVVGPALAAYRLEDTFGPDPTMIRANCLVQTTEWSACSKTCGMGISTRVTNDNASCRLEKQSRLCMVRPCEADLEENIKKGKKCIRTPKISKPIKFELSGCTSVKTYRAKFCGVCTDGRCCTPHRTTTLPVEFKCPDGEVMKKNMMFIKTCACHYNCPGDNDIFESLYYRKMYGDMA
Property Label: cynomolgus CTGF kon

INSERT INTO results (molecule, measured) VALUES
  ('SEQ ID NO: 36: optimized CTGF-binding hNGAL lipocalin mutein (protein, lipocalin mutein) QDSTSDLIPAPPLSKVPLQQNFQDNQFQGKWYVVGWAGNVKLREDKQPAKMSATIYELKEDKSYDVTEVVFEQKKCHYIIKTFVPGSQPGEFTAGDIKSPPGYTSSLVRVVSTNYNQHAMVFFKKVGQNREFFWITLYGRTKELTSELKENFIRFSKSLGLPENHIVFPVPIDQCIDG', '141000 M⁻¹ s⁻¹'),
  ('SEQ ID NO: 15: optimized CTGF-binding hNGAL lipocalin mutein (protein, lipocalin mutein) QDSTSDLIPAPPLSKVPLQQNFQDNQFQGKWYVVGLAGNAILREDKQPAKMFATIYELKEDKSYDVTSVRFEAKSCKYTIKTFVPGSQPGEFTAGYIKSAPGQTSTLVRVVSTNYNQHAMVFFKHVTQNREIFVITLYGRTKELTSELKENFIRFSKSLGLPENHIVFPVPIDQCIDG', '107000 M⁻¹ s⁻¹'),
  ('SEQ ID NO: 24: optimized CTGF-binding hNGAL lipocalin mutein (protein, lipocalin mutein) QDSTSDLIPAPPLSKVPLQQNFQDNQFQGKWYVVGVAGNAILRTDKQPAKMFATIYELKEDKSYDVTSVRFEAKSCKYTIKTFVPGSQPGEFTAGNIKSAPGQTSTLVRVVSTNYNQHAMVFFKHVSQNREIFVITLYGRTKELTSELKENFIRFSKSLGLPENHIVFPVPIDQCIDG', '195000 M⁻¹ s⁻¹'),
  ('SEQ ID NO: 23: optimized CTGF-binding hNGAL lipocalin mutein (protein, lipocalin mutein) QDSTSDLIPAPPLSKVPLQQNFQDNQFQGKWYVVGVAGNAILRPDKQPAKMFATIYELKEDKSYDVTSVRFEAKSCKYTIKTFVPGSQPGEFTSGQIKSAPGQTSTLVRVVSTNYNQHAMVFFKHVSQNREIFVITLYGRTKELTSELKENFIRFSKSLGLPENHIVFPVPIDQCIDG', 'B');

Data origin: patent US20240228562A1
